- Protocol Summary: Half life in po dosed rat
- Type: ADME, organism-based
- Applied Conditions: in vivo
Measurement Kind: half-life (min)
Quick note: give the figure in min, leave out the unit.

## Input Which value of half-life has been reported for COCCN1CCC(C(=O)NO)(S(=O)(=O)c2ccc(N3CCC(C(=O)Nc4ccccc4)CC3)cc2)CC1 in the records?
## Output 49.8

----------
As an illustration, consider measured pIC50 for molecules on Stromelysin-1 (Homo sapiens).
Sequence (P08254 whole entry): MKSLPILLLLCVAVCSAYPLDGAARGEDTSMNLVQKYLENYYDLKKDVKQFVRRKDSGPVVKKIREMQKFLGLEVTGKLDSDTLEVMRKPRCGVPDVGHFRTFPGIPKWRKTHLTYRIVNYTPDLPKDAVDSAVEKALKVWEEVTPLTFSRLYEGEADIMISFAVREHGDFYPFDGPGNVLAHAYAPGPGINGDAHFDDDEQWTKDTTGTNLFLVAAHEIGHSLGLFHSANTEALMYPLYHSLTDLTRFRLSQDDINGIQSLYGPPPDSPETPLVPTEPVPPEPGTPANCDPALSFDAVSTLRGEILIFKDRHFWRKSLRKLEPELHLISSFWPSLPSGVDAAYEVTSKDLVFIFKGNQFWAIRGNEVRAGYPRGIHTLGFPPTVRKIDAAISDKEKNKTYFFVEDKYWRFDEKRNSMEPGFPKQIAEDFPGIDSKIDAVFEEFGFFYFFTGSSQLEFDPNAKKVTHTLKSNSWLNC
The value called pIC50 is obtained by taking minus log10 of the concentration in mol/L.

Cc1cccc(N2CCN(C(=O)C3CCN(c4ccc(S(=O)(=O)C5(C(=O)NO)CCOCC5)cc4)CC3)CC2)c1C 6.80

Please look at the following molecule next.
## Input Which value of pIC50 has been reported for Cc1cccc(N2CCN(C(=O)C3CCN(c4ccc(S(=O)(=O)C5(C(=O)NO)CCN(C6CC6)CC5)cc4)CC3)CC2)c1C in the records?
## Output 6.26

----------
- Tested Target: Neutrophil collagenase (Homo sapiens, UniProt P22894)
- Sequence (P22894 whole entry): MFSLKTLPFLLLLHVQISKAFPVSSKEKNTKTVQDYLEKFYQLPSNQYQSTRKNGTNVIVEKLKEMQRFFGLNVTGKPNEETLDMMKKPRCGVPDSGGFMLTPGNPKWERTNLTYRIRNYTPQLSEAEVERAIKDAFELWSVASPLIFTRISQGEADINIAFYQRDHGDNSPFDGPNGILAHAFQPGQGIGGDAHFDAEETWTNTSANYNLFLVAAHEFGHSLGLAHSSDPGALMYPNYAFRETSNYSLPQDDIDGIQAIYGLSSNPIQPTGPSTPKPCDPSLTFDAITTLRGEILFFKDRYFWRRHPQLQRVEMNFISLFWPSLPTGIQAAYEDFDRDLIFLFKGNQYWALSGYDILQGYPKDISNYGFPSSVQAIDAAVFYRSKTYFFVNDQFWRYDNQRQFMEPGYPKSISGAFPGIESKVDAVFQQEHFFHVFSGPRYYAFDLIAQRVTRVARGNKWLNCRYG
- Protocol Summary: Inhibition of MMP8
// values below are reported pIC50
The value called pIC50 is obtained by taking minus log10 of the concentration in mol/L.

COCCN1CCC(C(=O)NO)(S(=O)(=O)c2ccc(N3CCC(C(=O)Nc4ccccc4)CC3)cc2)CC1 5.00

## Input Which value of pIC50 has been reported for Cc1cccc(N2CCN(C(=O)C3CCN(c4ccc(S(=O)(=O)C5(C(=O)NO)CCN(C6CC6)CC5)cc4)CC3)CC2)c1C in the records?
## Output 5.03

----------
- Tested Target: 72 kDa type IV collagenase (Homo sapiens)
- Sequence (P08253 whole entry): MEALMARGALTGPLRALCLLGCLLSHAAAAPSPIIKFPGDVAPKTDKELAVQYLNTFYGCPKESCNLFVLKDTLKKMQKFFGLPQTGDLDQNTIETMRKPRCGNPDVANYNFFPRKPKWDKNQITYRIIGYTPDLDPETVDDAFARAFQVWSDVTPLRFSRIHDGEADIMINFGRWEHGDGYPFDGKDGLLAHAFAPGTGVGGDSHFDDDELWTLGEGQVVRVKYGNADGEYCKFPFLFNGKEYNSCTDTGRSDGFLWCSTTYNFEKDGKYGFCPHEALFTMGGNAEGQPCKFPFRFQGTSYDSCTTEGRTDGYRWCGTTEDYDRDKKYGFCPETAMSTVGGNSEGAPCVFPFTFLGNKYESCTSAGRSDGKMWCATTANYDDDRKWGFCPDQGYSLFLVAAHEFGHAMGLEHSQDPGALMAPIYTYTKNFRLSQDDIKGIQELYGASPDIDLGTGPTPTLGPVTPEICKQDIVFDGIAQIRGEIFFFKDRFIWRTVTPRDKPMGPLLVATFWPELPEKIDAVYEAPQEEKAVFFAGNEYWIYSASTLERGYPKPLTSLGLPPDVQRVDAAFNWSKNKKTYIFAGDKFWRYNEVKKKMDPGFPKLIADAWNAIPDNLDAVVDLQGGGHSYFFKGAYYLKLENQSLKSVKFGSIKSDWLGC
Lab note: compare IC50 with 2000 nM, writing 1 (yes) if less and 0 (no) if equal or more.

Reference set (10 entries):
Compound	Label Class
Cc1cccc(N2CCN(C(=O)C3CCN(c4ccc(S(=O)(=O)C5(C(=O)NO)CCN(C6CC6)CC5)cc4)CC3)CC2)c1C	0 (no)
CN(Cc1ccccc1)C(=O)C1CCN(c2ccc(S(=O)(=O)C3(C(=O)NO)CCN(C4CC4)CC3)cc2)CC1	0 (no)
COCCN1CCC(C(=O)NO)(S(=O)(=O)c2ccc(N3CCC(C(=O)N4CCN(c5cccc(C)c5C)CC4)CC3)cc2)CC1	1 (yes)
C[C@@H]1COC[C@H](C)N1C(=O)C1CCN(c2ccc(S(=O)(=O)C3(C(=O)NO)CCOCC3)cc2)CC1	0 (no)
CC1CN(C(=O)C2CCN(c3ccc(S(=O)(=O)C4(C(=O)NO)CCOCC4)cc3)CC2)CC(C)N1 (stereo not drawn)	0 (no)
O=C(C1CCN(c2ccc(S(=O)(=O)C3(C(=O)NO)CCOCC3)cc2)CC1)N1CCN(CCc2ccccc2)CC1	1 (yes)
O=C(C1CCN(c2ccc(S(=O)(=O)C3(C(=O)NO)CCOCC3)cc2)CC1)N1CCc2ccccc2C1	0 (no)
COCCN1CCC(C(=O)NO)(S(=O)(=O)c2ccc(N3CCC(C(=O)N4CC(C)NC(C)C4)CC3)cc2)CC1 (stereo not drawn)	1 (yes)
COCCN1CCN(C(=O)C2CCN(c3ccc(S(=O)(=O)C4(C(=O)NO)CCOCC4)cc3)CC2)CC1	0 (no)
CN(C)CCN1CCN(C(=O)C2CCN(c3ccc(S(=O)(=O)C4(C(=O)NO)CCOCC4)cc3)CC2)CC1	0 (no)

## Input I'd appreciate it if you could check whether COc1cc2c(cc1OC)CN(C(=O)C1CCN(c3ccc(S(=O)(=O)C4(C(=O)NO)CCOCC4)cc3)CC1)CC2 has IC50 smaller than 2000 nM.
## Output 0 (no)

## Input Also need C#CCN(C)C(=O)C1CCN(c2ccc(S(=O)(=O)C3(C(=O)NO)CCOCC3)cc2)CC1 , thanks.
## Output 0 (no)

## Input Also need C=CCN(C)C(=O)C1CCN(c2ccc(S(=O)(=O)C3(C(=O)NO)CCOCC3)cc2)CC1 , thanks.
## Output 0 (no)

----------
// values below are reported Ratio IC50
- Protocol Summary: Selectivity ratio of IC50 for MMP2 to MMP13

Compound	Ratio IC50
O=C(C1CCN(c2ccc(S(=O)(=O)C3(C(=O)NO)CCOCC3)cc2)CC1)N1CCN(c2ccncc2)CC1	58
O=C(C1CCN(c2ccc(S(=O)(=O)C3(C(=O)NO)CCOCC3)cc2)CC1)N1CCN(c2ccccn2)CC1	336
O=C(C1CCN(c2ccc(S(=O)(=O)C3(C(=O)NO)CCOCC3)cc2)CC1)N1CCN(c2ccccc2F)CC1	209
CC(=O)c1ccc(N2CCN(C(=O)C3CCN(c4ccc(S(=O)(=O)C5(C(=O)NO)CCOCC5)cc4)CC3)CC2)cc1	104
CN(C)CCN1CCN(C(=O)C2CCN(c3ccc(S(=O)(=O)C4(C(=O)NO)CCOCC4)cc3)CC2)CC1	> 111

## Input Which value of Ratio IC50 has been reported for CN(Cc1ccccc1)C(=O)C1CCN(c2ccc(S(=O)(=O)C3(C(=O)NO)CCN(C4CC4)CC3)cc2)CC1 in the records?
## Output 175

## Input Also need O=C(C1CCN(c2ccc(S(=O)(=O)C3(C(=O)NO)CCOCC3)cc2)CC1)N1CCN(c2ccc(F)cc2)CC1 , thanks.
## Output 267

## Input Also need O=C(C1CCN(c2ccc(S(=O)(=O)C3(C(=O)NO)CCOCC3)cc2)CC1)N1CCN(CCO)CC1 , thanks.
## Output 150

## Input Also need Cc1cccc(N2CCN(C(=O)C3CCN(c4ccc(S(=O)(=O)C5(C(=O)NO)CCOCC5)cc4)CC3)CC2)c1C , thanks.
## Output 1500

## Input Also need O=C(C1CCN(c2ccc(S(=O)(=O)C3(C(=O)NO)CCOCC3)cc2)CC1)N1CCc2ccccc2C1 , thanks.
## Output 233

## Input Also need C#CCN(C)C(=O)C1CCN(c2ccc(S(=O)(=O)C3(C(=O)NO)CCOCC3)cc2)CC1 , thanks.
## Output 86

## Input Also need Cc1ccc(N2CCN(C(=O)C3CCN(c4ccc(S(=O)(=O)C5(C(=O)NO)CCOCC5)cc4)CC3)CC2)c(C)c1 , thanks.
## Output 459

## Input Also need COc1ccccc1N1CCN(C(=O)C2CCN(c3ccc(S(=O)(=O)C4(C(=O)NO)CCOCC4)cc3)CC2)CC1 , thanks.
## Output 250

## Input Also need CC(=O)N1CCN(C(=O)C2CCN(c3ccc(S(=O)(=O)C4(C(=O)NO)CCOCC4)cc3)CC2)CC1 , thanks.
## Output 50

## Input Also need COCCN1CCC(C(=O)NO)(S(=O)(=O)c2ccc(N3CCC(C(=O)N4CC(C)NC(C)C4)CC3)cc2)CC1 (configuration not stated) , thanks.
## Output 34

## Input Also need C=CCN(C)C(=O)C1CCN(c2ccc(S(=O)(=O)C3(C(=O)NO)CCOCC3)cc2)CC1 , thanks.
## Output 83

## Input Also need COCCN1CCN(C(=O)C2CCN(c3ccc(S(=O)(=O)C4(C(=O)NO)CCOCC4)cc3)CC2)CC1 , thanks.
## Output 156

----------
- Protocol Summary: Selectivity ratio of IC50 for MMP2 to MMP13
Measurement Kind: Ratio IC50
// print number alone

// worked examples, Ratio IC50 included
O=C(C1CCN(c2ccc(S(=O)(=O)C3(C(=O)NO)CCOCC3)cc2)CC1)N1CCN(c2ncccn2)CC1 250
O=C(C1CCN(c2ccc(S(=O)(=O)C3(C(=O)NO)CCOCC3)cc2)CC1)N1CCN(CCc2ccccc2)CC1 36
O=C(C1CCN(c2ccc(S(=O)(=O)C3(C(=O)NO)CCOCC3)cc2)CC1)N1CCN(c2cnccn2)CC1 34

Please look at the following compound next.
## Input Which value of Ratio IC50 has been reported for CC(C)N1CCN(C(=O)C2CCN(c3ccc(S(=O)(=O)C4(C(=O)NO)CCOCC4)cc3)CC2)CC1 in the records?
## Output 196

----------
- Tested Target: Interstitial collagenase (Homo sapiens, UniProt P03956)
- Sequence (P03956 whole entry): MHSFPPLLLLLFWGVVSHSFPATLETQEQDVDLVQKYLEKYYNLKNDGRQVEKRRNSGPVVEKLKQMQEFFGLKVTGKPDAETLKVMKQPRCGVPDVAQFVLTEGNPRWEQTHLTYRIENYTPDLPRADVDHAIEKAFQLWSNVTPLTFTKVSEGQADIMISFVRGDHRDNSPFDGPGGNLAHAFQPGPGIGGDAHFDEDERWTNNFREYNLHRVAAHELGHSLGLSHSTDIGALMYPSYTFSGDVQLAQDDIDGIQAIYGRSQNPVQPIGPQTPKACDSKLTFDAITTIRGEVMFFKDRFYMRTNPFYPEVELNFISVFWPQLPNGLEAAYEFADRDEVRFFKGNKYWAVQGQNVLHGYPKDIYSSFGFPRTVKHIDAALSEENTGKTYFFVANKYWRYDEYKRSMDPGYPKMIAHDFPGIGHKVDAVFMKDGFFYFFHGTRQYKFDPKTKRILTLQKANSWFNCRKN
Measurement Kind: IC50 (µM)
Quick note: give the figure in µM, leave out the unit.

## Input Which value of IC50 has been reported for COCCN1CCC(C(=O)NO)(S(=O)(=O)c2ccc(N3CCC(C(=O)Nc4ccccc4)CC3)cc2)CC1 in the records?
## Output 10
